molecular target: p53 Y220C mutant protein (amino acid residues 94-293) (Homo sapiens, UniProt P04637, Y220C); construct: p53 Y220C mutant protein (amino acid residues 94-293); assay: Surface Plasmon Resonance (SPR) assay, p53 Y220C Kd_kinetic; settings: multi-cycle kinetics, 16 or 20 °C, pH 7.5, 1:1 binding model
pKd: −log10 of the molar value.
Quantity: pKd

Example cases with answers are listed next.
Molecule	pKd
CN1CC[C@@H](Nc2cccn3c(SC(F)(F)F)c(-c4noc(CNC(=O)c5noc(N(C)C)n5)n4)cc23)[C@@H](F)C1	> 8.00
CN1CC[C@@H](Nc2cccn3c(SC(F)(F)F)c(-c4noc(CNC(=O)c5nnc(N(C)C)s5)n4)cc23)[C@@H](F)C1	> 8.00
CN1CC[C@@H](Nc2cccn3c(SC(F)(F)F)c(-c4noc(CNC(=O)C5(C(F)(F)F)CC5)n4)cc23)[C@@H](F)C1	7.00 to 8.00

Problem: // returns reported pKd for input CN1CC[C@@H](Nc2cccn3c(SC(F)(F)F)c(-c4noc(CNC(=O)c5ccn(C)c5)n4)cc23)[C@@H](F)C1
Result: > 8.00

Problem: Now consider CN1CC[C@@H](Nc2cccn3c(SC(F)(F)F)c(-c4noc(CNC(=O)C5CC(O)C5)n4)cc23)[C@@H](F)C1 (stereo partly shown) .
Result: > 8.00

Problem: Now consider C[C@@H](NC(=O)C1CC1)c1nc(-c2cc3c(N[C@@H]4CCN(C)C[C@@H]4F)cccn3c2SC(F)(F)F)no1 (relative stereo) .
Result: 7.00 to 8.00

Problem: Now consider CN1CC[C@@H](Nc2cccn3c(SC(F)(F)F)c(-c4noc(CNC(=O)c5ccn(CCF)c5)n4)cc23)[C@@H](F)C1 .
Result: > 8.00

Problem: Now consider CN1CC[C@@H](Nc2cccn3c(SC(F)(F)F)c(-c4cnc(CNC(=O)C5CC5)o4)cc23)[C@@H](F)C1 .
Result: 7.00 to 8.00

###

system: NUGC3 cells (p53 Y220C); test: Cell Proliferation Assay (CellTiter-Glo), NUGC3 p53 Y220C; format: cell-based; details: Homo sapiens, NUGC-3, 120 h, 5 days, read-out: CTG NUGC3 P53 Y220C IC50
pIC50: −log10 of the molar value.
Quantity: pIC50

Example cases with answers are listed next.
Molecule	pIC50
CN1CC[C@@H](Nc2cccn3c(SC(F)(F)F)c(-c4noc(CNC(=O)C5(c6ccc(F)cc6)CC5)n4)cc23)[C@@H](F)C1 [Example 46]	≤ 5.52
CN1CC[C@@H](Nc2cccn3c(SC(F)(F)F)c(-c4noc(CNC(=O)c5cnn[nH]5)n4)cc23)[C@@H](F)C1 [Example 80]	5.52 to 5.82
CN1CC[C@@H](Nc2cccn3c(SC(F)(F)F)c(-c4noc(CNC(=O)c5ncon5)n4)cc23)[C@@H](F)C1 [Example 74]	5.52 to 5.82

Problem: Observed pIC50 on NUGC3 cells (p53 Y220C) for COC1(C(=O)NCc2nc(-c3cc4c(N[C@@H]5CCN(C)C[C@@H]5F)cccn4c3SC(F)(F)F)no2)CC1 [Example 26] , please.
Result: 5.52 to 5.82

###

Examples of molecules with documented AC50 follow.
biological target: p53 Y220C (Homo sapiens, UniProt P04637, Y220C); test: Luciferase Reporter Assay, p53 Y220C (NCIH1299 cells with inducible p53 Y220C and p53 response element-luciferase); type: cell-based; conditions: 6 hour compound treatment, read-out: Luc P53 Y220C AC50

Example cases with answers are listed next.
Line notation	Test system	AC50
CN1CC[C@@H](Nc2cccn3c(SC(F)(F)F)c(-c4noc(CNC(=O)c5cc(C#N)cs5)n4)cc23)[C@@H](F)C1	p53 Y220C (Homo sapiens, UniProt P04637, Y220C)	750 to 1500 nM
CN1CC[C@@H](Nc2cccn3c(SC(F)(F)F)c(-c4nsc(CNC(=O)c5ccn(C(C)(C)C)c5)n4)cc23)[C@@H](F)C1	p53 Y220C (Homo sapiens, UniProt P04637, Y220C)	≥ 3000 nM
CN1CC[C@@H](Nc2cccn3c(SC(F)(F)F)c(-c4noc(CNC(=O)c5noc(N(C)C)n5)n4)cc23)[C@@H](F)C1	p53 Y220C (Homo sapiens, UniProt P04637, Y220C)	< 750 nM
CN1CC[C@@H](Nc2cccn3c(SC(F)(F)F)c(-c4noc(CNC(=O)c5cccc6c5NC(=O)C6)n4)cc23)[C@@H](F)C1	p53 Y220C (Homo sapiens, UniProt P04637, Y220C)	< 750 nM
CN1CC[C@@H](Nc2cccn3c(SC(F)(F)F)c(-c4nsc(CNC(=O)c5cnn(C(C)(C)C)c5)n4)cc23)[C@@H](F)C1	p53 Y220C (Homo sapiens, UniProt P04637, Y220C)	≥ 3000 nM

Problem: // returns reported AC50 for input CN1CC[C@@H](Nc2cccn3c(SC(F)(F)F)c(-c4noc(CNC(=O)[C@@H]5COCCN5C)n4)cc23)[C@@H](F)C1
Result: ≥ 3000 nM

###

system: NUGC3 cells (p53 Y220C); assay: Cell Proliferation Assay (CellTiter-Glo), NUGC3 p53 Y220C; assay type: cell-based; details: Homo sapiens, NUGC-3, 120 h, 5 days, read-out: CTG NUGC3 P53 Y220C IC50
Examples of molecules with documented IC50 follow.

Example cases with answers are listed next.
Molecule	Test system	IC50
CN1CC[C@@H](Nc2cccn3c(SC(F)(F)F)c(-c4noc(CNC(=O)c5ccns5)n4)cc23)[C@@H](F)C1	NUGC3 cells (p53 Y220C)	< 750 nM
CN1CC[C@@H](Nc2cccn3c(SC(F)(F)F)c(-c4noc(CNC(=O)C5(O)CC5)n4)cc23)[C@@H](F)C1	NUGC3 cells (p53 Y220C)	750 to 1500 nM
CN1CC[C@@H](Nc2cccn3c(SC(F)(F)F)c(-c4noc(CNC(=O)C5(C#N)CC5)n4)cc23)[C@@H](F)C1	NUGC3 cells (p53 Y220C)	< 750 nM

Problem: // returns reported IC50 for input CN1CC[C@@H](Nc2cccn3c(SC(F)(F)F)c(-c4noc(CNC(=O)C5CC5)n4)cc23)[C@@H](F)C1
Result: < 750 nM

Problem: Now consider CN1CC[C@@H](Nc2cccn3c(SC(F)(F)F)c(-c4noc(CNC(=O)c5sccc5F)n4)cc23)[C@@H](F)C1 .
Result: < 750 nM

Problem: Now consider COC(C)(C)C(=O)NCc1nc(-c2cc3c(N[C@@H]4CCN(C)C[C@@H]4F)cccn3c2SC(F)(F)F)no1 .
Result: ≥ 3000 nM

Problem: Now consider CN1CC[C@@H](Nc2cccn3c(SC(F)(F)F)c(-c4noc(CNC(=O)COc5ccc(C#N)cc5)n4)cc23)[C@@H](F)C1 .
Result: 750 to 1500 nM

Problem: Now consider CN1CC[C@@H](Nc2cccn3c(SC(F)(F)F)c(-c4noc(CNC(=O)c5ccc(C#N)s5)n4)cc23)[C@@H](F)C1 .
Result: < 750 nM

Problem: Now consider CN1CC[C@@H](Nc2cccn3c(SC(F)(F)F)c(-c4nsc(CNC(=O)c5cnn(C(C)(C)C)c5)n4)cc23)[C@@H](F)C1 .
Result: ≥ 3000 nM

Problem: Now consider CN1CC[C@@H](Nc2cccn3c(SC(F)(F)F)c(-c4noc(CNC(=O)c5cnc(N(C)C)o5)n4)cc23)[C@@H](F)C1 .
Result: < 750 nM

###

test system: NUGC3 cells (p53 Y220C); experiment: Cell Proliferation Assay (CellTiter-Glo), NUGC3 p53 Y220C; format: cell-based; conditions: Homo sapiens, NUGC-3, 120 h, 5 days, read-out: CTG NUGC3 P53 Y220C IC50
pIC50: −log10 of the molar value.
Quantity: pIC50

Compound	Test system	pIC50
CN1CC[C@@H](Nc2cccn3c(SC(F)(F)F)c(-c4noc(CNC(=O)c5ccn(C(C)(C)C)c5)n4)cc23)[C@@H](F)C1 [Example 7]	NUGC3 cells (p53 Y220C)	> 6.12
COc1csc(C(=O)NCc2nc(-c3cc4c(N[C@@H]5CCN(C)C[C@@H]5F)cccn4c3SC(F)(F)F)no2)c1 [Example 37]	NUGC3 cells (p53 Y220C)	> 6.12
CN1CC[C@@H](Nc2cccn3c(SC(F)(F)F)c(-c4noc(CNC(=O)c5nnc[nH]5)n4)cc23)[C@@H](F)C1 [Example 83]	NUGC3 cells (p53 Y220C)	5.82 to 6.12

Problem: // returns reported pIC50 for input Cc1ncc(C(=O)NCc2nc(-c3cc4c(N[C@@H]5CCN(C)C[C@@H]5F)cccn4c3SC(F)(F)F)no2)o1 [Example 71]
Result: > 6.12

Problem: Now consider COc1ccc2[nH]nc(C(=O)NCc3nc(-c4cc5c(N[C@@H]6CCN(C)C[C@@H]6F)cccn5c4SC(F)(F)F)no3)c2c1 [Example 21] .
Result: 5.52 to 5.82

Problem: Now consider CN1CC[C@@H](Nc2cccn3c(SC(F)(F)F)c(-c4noc(CNC(=O)c5ccc(-c6ccn[nH]6)s5)n4)cc23)[C@@H](F)C1 [Example 56] .
Result: > 6.12
